The origin of these recorded values is patent US20220396565A1.

Test system: Acinetobacter baumannii ATCC17961
Assay: Antimicrobial susceptibility testing: 90% growth inhibitory concentration (IC90) determination, Iso-Sensitest broth
Assay type: cell-based
Details: Acinetobacter baumannii, ATCC17961, read-out: ATCC 17961 IC90
Structures can show the parent of a compound that is named as a salt.
measure: IC90 (nM)
Give bare numbers, in nM.

Please review the entries below; each comes with its answer.
>  <compound>
COc1ccc(-c2cnc(C(=O)Nc3ccc(C(=O)N4CCN(C(=O)CN5CCCC5)CC4)c(Cl)c3)n2C)c(F)c1F [Example 293, formate]

>  <experimental target>
Acinetobacter baumannii ATCC17961

>  <measure>
IC90

>  <uom>
nM

>  <data value>
30

$$$$
>  <compound>
Cn1c(-c2ccc(OCC#N)c(F)c2F)cnc1C(=O)Nc1ccc(C(=O)N2CCN(C(=O)N[C@@H]3CNC[C@H]3O)CC2)c(Cl)c1

>  <experimental target>
Acinetobacter baumannii ATCC17961

>  <measure>
IC90

>  <uom>
nM

>  <data value>
70

$$$$

Please report IC90 for every entry that follows.
1. Cn1c(-c2ccc(OCC#N)c(F)c2F)cnc1C(=O)Nc1ccc(C(=O)N2CCN(C(=O)NCCN)CC2)c(Cl)c1 [Example 281, 2,2,2-trifluoroacetate]
2. COc1ccc(-c2cnc(C(=O)Nc3ccc(C(=O)N4CCN(C(=O)C5CCN(CC(=O)O)CC5)CC4)c(Cl)c3)n2C)c(F)c1F [Example 288, trifluoroacetate]
3. COc1ccc(-c2cnc(C(=O)Nc3ccc(C(=O)N4CCC(C(=O)N[C@@H](C)CN)CC4)c(Cl)c3)n2C)c(F)c1F [Example 28, trifluoroacetate]
4. Cn1c(-c2ccc(OCF)c(F)c2F)cnc1C(=O)Nc1ccc(C(=O)N2CCN(C(=O)C3CNCC(O)C3)CC2)c(Cl)c1 (stereo not drawn) [Example 171, formate]

Out:
1: 60; 2: 470; 3: 170; 4: 50

====

What IC90 was measured for each of the following?
Test system: Acinetobacter baumannii ATCC17961
Test: Antimicrobial susceptibility testing: 90% growth inhibitory concentration (IC90) determination, Iso-Sensitest broth
Type: cell-based
Settings: Acinetobacter baumannii, ATCC17961, 90% growth inhibitory concentration, Acinetobacter baumannii ATCC17961, Iso-Sensitest broth; read-out: ATCC 17961 IC90
Structures can show the parent of a compound that is named as a salt.
Give bare numbers, in nM.

Observe how each entry below is paired with its result.
>  <molecule>
COc1ccc(-c2cnc(C(=O)Nc3ccc(C(=O)N4CCN(C(=O)C[C@@H]5CCNC5)CC4)c(Cl)c3)n2C)c(C#N)c1F [Example 260, formate]

>  <experimental target>
Acinetobacter baumannii ATCC17961

>  <IC90, nM>
250

$$$$
>  <molecule>
COc1ccc(-c2cnc(C(=O)Nc3ccc(C(=O)N4CCN(C(=O)[C@@H]5CCNC[C@H]5O)CC4)c(Cl)c3)n2C)c(F)c1F [Example 230, formate]

>  <experimental target>
Acinetobacter baumannii ATCC17961

>  <IC90, nM>
100

$$$$
>  <molecule>
COc1ccc(-c2cnc(C(=O)Nc3ccc(C(=O)N4CCC(C(=O)N5CC(CN)C5)CC4)c(Cl)c3)n2C)c(F)c1F [Example 34]

>  <experimental target>
Acinetobacter baumannii ATCC17961

>  <IC90, nM>
70

$$$$
>  <molecule>
Cn1c(-c2ccc(OCF)c(F)c2Cl)cnc1C(=O)Nc1ccc(C(=O)N2CCC(C(=O)NC[C@@H]3CCNC3)CC2)c(Cl)c1 [Example 62, formate]

>  <experimental target>
Acinetobacter baumannii ATCC17961

>  <IC90, nM>
60

$$$$
>  <molecule>
Cn1c(-c2ccc(OCF)c(F)c2F)cnc1C(=O)Nc1ccc(C(=O)N2CCN(C(=O)CC3(O)CCNCC3)CC2)c(Cl)c1 [Example 164, formate]

>  <experimental target>
Acinetobacter baumannii ATCC17961

>  <IC90, nM>
70

$$$$
>  <molecule>
CN(C)CC(=O)N1CCN(C(=O)c2ccc(NC(=O)c3ncc(-c4ccc(OCF)cc4F)n3C)cc2Cl)CC1 [Example 222]

>  <experimental target>
Acinetobacter baumannii ATCC17961

>  <IC90, nM>
90

$$$$
>  <molecule>
COc1ccc(-c2cnc(C(=O)Nc3ccc(C(=O)N4C[C@H]5CN(C(=O)CN(C)C)C[C@H]5C4)c(Cl)c3)n2C)c(F)c1F [Example 190, formate]

>  <experimental target>
Acinetobacter baumannii ATCC17961

>  <IC90, nM>
180

$$$$
>  <molecule>
COc1ccc(-c2cnc(C(=O)Nc3ccc(C(=O)N4CCC(NS(=O)(=O)CCN)CC4)c(Cl)c3)n2C)c(F)c1F [Example 236]

>  <experimental target>
Acinetobacter baumannii ATCC17961

>  <IC90, nM>
60

$$$$

Batch request: IC90 for each of the following molecules.
1. CN1CCC(NNC(=O)C2CCN(C(=O)c3ccc(NC(=O)c4ncc(-c5ccc(OCF)c(F)c5F)n4C)cc3Cl)CC2)CC1 [Example 52, trifluoroacetate]
2. COc1ccc(-c2cnc(C(=O)Nc3ccc(C(=O)N4CCN(C(=O)C5CC(CN)C5)CC4)c(Cl)c3)n2C)c(F)c1F (stereo not shown) [Example 185, formate]
3. COc1ccc(-c2cnc(C(=O)Nc3ccc(C(=O)N4CC5(C4)CN(C(=O)[C@@H]4C[C@@H](O)CN4)C5)c(Cl)c3)n2C)c(F)c1F [Example 112]
4. Cn1c(-c2ccc(OCC#N)c(F)c2F)cnc1C(=O)Nc1ccc(C(=O)N2CCN(C(=O)CN3CC[C@@H](C(=O)O)C3)CC2)c(Cl)c1 [Example 215, trifluoroacetic acid]
5. COc1ccc(-c2cnc(C(=O)Nc3ccc(C(=O)N4CCN(C(=O)CN5CC(O)C5)CC4)c(Cl)c3)n2C)c(F)c1F [Example 295, formate]

Out:
1: 130; 2: 60; 3: 230; 4: 800; 5: 110
